Value source: patent US20240376189A1

Biological target: T1, human C5a (human, UniProt P01031 678-751, biotinylated in the U937/C5aR ligand blocking assay (site not stated))
T1 sequence: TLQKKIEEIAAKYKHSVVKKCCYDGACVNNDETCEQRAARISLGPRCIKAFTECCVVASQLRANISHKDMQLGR
Test: cell-based or functional assay
endpoint-label: Inhibition of calcium influx IC50 (nM), FLIPR, Experiment #1
Reply numerically in nM, unit not repeated.

| binder | reading |
| --- | --- |
| N97H (humanized anti-C5a IgG4 antibody) (antibody, V domains shown, Carries F29H and N97H in VH and Y96H in VL (Kabat)) VH: QVQLVQSGAEVKKPGSSVKVSCKASGYTHTDHIIHWMRQAPGQGLEWMGYIYPREGWTNYNENFKGRVTITADKSTSTAYMELSSLRSEDTAVYYCARERHLEYFDYWGQGTTVTVSS VL: DIVLTQSPASLAVSPGQRATITCKASQSVDYEGFNYMNWYQQKPGQPPKLLIYAASNLDSGVPARFSGSGSGTDFTLTINPVEAEDTANYYCQQSNEDPHTFGGGTKVEIKR | 0.072 |
| 16D10 (humanized anti-C5a IgG4 antibody) (antibody, V domains shown, also called WT (16D10); WT) VH: QVQLVQSGAEVKKPGSSVKVSCKASGYTFTDHIIHWMRQAPGQGLEWMGYIYPREGWTNYNENFKGRVTITADKSTSTAYMELSSLRSEDTAVYYCARERNLEYFDYWGQGTTVTVSS VL: DIVLTQSPASLAVSPGQRATITCKASQSVDYEGFNYMNWYQQKPGQPPKLLIYAASNLDSGVPARFSGSGSGTDFTLTINPVEAEDTANYYCQQSNEDPYTFGGGTKVEIKR | 0.106 |
| N92H (humanized anti-C5a IgG4 antibody) (antibody, V domains shown, Carries F29H in VH and N92H and Y96H in VL (Kabat); also called N92H antibody) VH: QVQLVQSGAEVKKPGSSVKVSCKASGYTHTDHIIHWMRQAPGQGLEWMGYIYPREGWTNYNENFKGRVTITADKSTSTAYMELSSLRSEDTAVYYCARERNLEYFDYWGQGTTVTVSS VL: DIVLTQSPASLAVSPGQRATITCKASQSVDYEGFNYMNWYQQKPGQPPKLLIYAASNLDSGVPARFSGSGSGTDFTLTINPVEAEDTANYYCQQSHEDPHTFGGGTKVEIKR | 0.078 |

query: Report Inhibition of calcium influx IC50 (nM), FLIPR, Experiment #1, nothing else, for this binder: E54H (humanized anti-C5a IgG4 antibody) (antibody, V domains shown, Carries F29H and E54H in VH and Y96H in VL (Kabat) relative to 16D10) VH: QVQLVQSGAEVKKPGSSVKVSCKASGYTHTDHIIHWMRQAPGQGLEWMGYIYPRHGWTNYNENFKGRVTITADKSTSTAYMELSSLRSEDTAVYYCARERNLEYFDYWGQGTTVTVSS VL: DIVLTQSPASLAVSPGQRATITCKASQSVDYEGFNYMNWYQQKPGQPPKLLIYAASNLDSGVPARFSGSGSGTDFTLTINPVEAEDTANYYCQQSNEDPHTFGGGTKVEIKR
result: 0.136
